System: p53 Y220C mutant
EXPERIMENT: HTRF assay: compounds promoting the binding of p53 Y220C mutant with DNA
Type: biochemical
CONDITION PARAMETERS: His-tagged p53 Y220C (94-312), biotin-labeled DNA
READOUT KIND: SC150 (nM)
Kindly answer with a numeric value in nM, unit omitted.

Asked: SC150 lookup needed for `CNC(=O)c1ccc(NCC#Cc2cc3c(N[C@@H]4CCN(C)C[C@@H]4F)cccn3c2CC(F)(F)F)c(OC)c1` , thanks.
Given back: 4.6

Asked: # SC150 lookup, item `COc1nc(C(=O)NS(C)(=O)=O)ncc1NCC#Cc1cc2c(N[C@@H]3CCN(C)C[C@@H]3F)cccn2c1CC(F)(F)F`
Given back: 0.74

Asked: Which SC150 is reported for this compound? `COc1nc(C(=O)NS(C)(=O)=O)ccc1NCC#Cc1cc2c(N[C@@H]3CCN(C)C[C@@H]3F)cccn2c1CC(F)(F)F`
Given back: 1.0
